- Tested on: Italian ryegrass (Lolium multiflorum)
- Test method notes: Test B pre-/postemergence plant response
- Assay type: in vivo
- Protocol conditions: Preemergence, 500 g ai/ha; 0 to 100 scale where 0 is no effect and 100 is complete control
Catalogue of Plant response rating, Ryegrass, Italian values
Endpoint: Plant response rating, Ryegrass, Italian

> print(dat)
                                 smiles.code  recorded.result
 1  N#Cc1cccc(Oc2ncc(Cl)cn2)c1-c1cc(C(F)(F)F)ccn1               20
 2             Clc1cnc(Oc2ccccc2-c2cccs2)nc1               10
 3  Cc1c(-c2ccccc2Oc2ncc(Cl)cn2)noc1C(F)(F)F                0
 4  Fc1cccc(Oc2ncc(Cl)cn2)c1-c1cn(CC(F)(F)F)cn1               10
 5  FC(F)(F)Cn1cnc(-c2ccccc2Oc2ncc(Cl)cn2)c1                0
 6            Cn1nnnc1-c1ccccc1Oc1ncc(Cl)cn1                0
 7            Cn1nnnc1-c1ccccc1Oc1ncc(Br)cn1                0
 8  FC(F)c1cc(-c2c(Cl)cccc2Oc2ncc(Cl)cn2)no1               40
 9    FC(F)(F)c1csc(-c2ccccc2Oc2ncc(I)cn2)n1                0
10  FC(F)(F)c1cc(-c2c(Cl)cccc2Oc2ncc(Cl)cn2)no1               20
11        CC(C)n1ncnc1-c1ccccc1Oc1ncc(Cl)cn1                0
12          Cn1nnc(-c2ccccc2Oc2ncc(Cl)cn2)n1               50
13  FC(F)(F)c1ccnc(-c2c(Cl)cccc2Oc2ncc(Cl)cn2)c1                0
14  FC(F)(F)c1cc(-c2c(I)cccc2Oc2ncc(Cl)cn2)no1                0
15  N#Cc1cccc(Oc2ncc(Cl)cn2)c1-c1cc(C(F)F)on1               70
16  FC(F)(F)c1cc(-c2ccccc2Oc2ncc(Cl)cn2)ncn1               60
